- MEASUREMENT_NOTES: Plasma PK in rats after SC injection
- Format: in vivo, rat
- CONDITION_CONTEXT: after direct SC delivery of fosgo-AM 10 mg/kg
Non-standard residues stand in square brackets, D forms with d. Residues, ends and D or L forms follow the SMILES beside them. *: point of attachment. Hexanoyl = CCCCCC(=O)*; Ahx = NCCCCCC(=O)O
VALUE_TYPE: fosgo-AM maximum concentration (Cmax) in plasma (ng/mL)
Report the figure in ng/mL without appending any unit label.

input: Look up fosgo-AM maximum concentration (Cmax) in plasma for this molecule: CCCCCC(=O)N[C@@H](Cc1ccc(O)cc1)C(=O)N[C@H](C(=O)NCCCCCC(N)=O)[C@@H](C)CC [fosgo-AM] (Hexanoyl-Tyr-Ile-[Ahx]-NH2)
output: 329
